Data origin: patent US7326684B2

I'd be grateful if you could share measured Ki for these entries.
target: non-opioid receptors for β-endorphin on T lymphocytes; type: binding, human; details: read-out: Ki, inhibition of [125I]β-endorphin binding
Numbers only here, please. The scale is nM.

The substance listed as H-LVKGFY-OH [H-LVKGFY-OH] has a reported Ki of 8

The substance listed as H-CLVKGFY-OH [H-CLVKGFY-OH] has a reported Ki of 3.4

The substance listed as "H-TCLVKGFY-OH" has a reported Ki of 2.2

The substance listed as "H-LTCLVKGFY-OH" has a reported Ki of 1

The substance listed as H-VKGFY-OH [Pentarphin, Val-Lys-Gly-Phe-Tyr] has a reported Ki of 15
